tested on: KM12; assay: NCI tumour cell line growth inhibition, 48 h
Activity calls are given as the source filed them. No stated cut-off is given here; in the data, active = GI50 up to about 1.1 µM and inactive = higher.
Here the recorded GI50 is given for each entry.

Record excerpt, results attached:
compound="CC(=O)Oc1ccccc1C(=O)Nc1ncc([N+](=O)[O-])s1 [NITAZOXANIDE]" reported_result="22 µM (inactive)"
compound=O=C(c1ccccc1Br)C(F)(F)F reported_result="> 100 µM (inactive)"
compound="COc1cc2cc(C(=O)N3CC(CCl)c4c3cc(NC(=O)C(C)Nc3c([N+](=O)[O-])cc(C(=O)NCCN(C)C)cc3[N+](=O)[O-])c3ccccc43)[nH]c2c(OC)c1OC (stereo unspecified)" reported_result="0.119 µM (active)"
compound=O=c1[nH]c(=O)n(Cc2ccccc2CO)cc1Sc1ccccc1 reported_result="23.7 µM (inactive)"
compound=O=C(NCCN1CCCCC1)c1cccc(I)c1 reported_result="> 100 µM (inactive)"
compound="CCCCCCCCCCCCCCCCOC[C@@H](COC(c1ccccc1)(c1ccccc1)c1ccccc1)O[PH](=S)OC (stereo partly specified)" reported_result="4.3 µM (inactive)"

Ask: Recorded GI50 of `CN(C)CN1CSC(=S)N(CN(C)C)C1` , please.
Reply: > 100 µM (inactive)

Ask: Recorded GI50 of `Cc1nc(NC(=S)NC(=O)c2ccc(Cl)c(Cl)c2)sc1C(=O)/C=C/c1ccccc1[N+](=O)[O-]` , please.
Reply: 18.7 µM (inactive)

Ask: Recorded GI50 of `C=C1C(=O)O[C@H]2[C@@H](O)[C@H](C)CCC[C@]3(C)O[C@H]3CC[C@@]3(C)O[C@@H]3C[C@@H]12` , please.
Reply: 7.94 µM (inactive)

Ask: Recorded GI50 of `Cc1cc(C)nc(NCCC(O)(P(=O)(O)O)P(=O)(O)O)n1` , please.
Reply: > 100 µM (inactive)

Ask: Recorded GI50 of `CCCNC(=S)N/C=C1/C(=O)Oc2ccccc2C1=O` , please.
Reply: > 100 µM (inactive)

* * *

Here the recorded GI50 is given for each entry.
tested on: CCRF-CEM; experiment: NCI tumour cell line growth inhibition, 48 h
Activity calls are given as the source filed them. Cut-off read from the data, not from the text of the source: active = GI50 up to about 1.1 µM and inactive = higher.

Record excerpt, results attached:
compound=CCN(CC)CCOCCOCC1(c2ccc(Cl)c(Cl)c2)CCCCC1 reported_result="2.99 µM (inactive)"
compound=O=S(=O)(O)c1c(Cl)c(Cl)c(O)c2ncccc12 reported_result="4.01 µM (inactive)"
compound=CCOC(=O)CNC(SC)=C(C#N)C#N reported_result="> 100 µM (inactive)"
compound=Cc1nc(Nc2ccc(Cl)c(Cl)c2)sc1C(/C=C/c1ccc2c(c1)OCO2)=N/Nc1ccc([N+](=O)[O-])cc1[N+](=O)[O-] reported_result="80.9 µM (inactive)"
compound="COC(=O)/C=C1/CCC(C(=O)OC)N1 (centres undefined)" reported_result="> 100 µM (inactive)"
compound="N#CC12CC3=C(N=C1NC1=C(CCc4ccccc41)C2)c1ccccc1CC3 (centres undefined)" reported_result="0.745 µM (active)"
compound=COC[C@@H](/N=C/C(C)(C)C)C(C)C reported_result="> 100 µM (inactive)"
compound=CN(C)CCNC(=O)c1cccc2ccc(-c3ccc(F)cc3)nc12 reported_result="2.86 µM (inactive)"

Ask: Recorded GI50 of `C(/C=N/N=C1NCCN1)=N\N=C1NCCN1` , please.
Reply: > 100 µM (inactive)

Ask: Recorded GI50 of CC(=O)N1c2cc(/N=N/N(C)C)ccc2NC(=O)CC1C (centres undefined) , please.
Reply: > 100 µM (inactive)

Ask: Recorded GI50 of COc1ccc(Cc2nc3cc(C(F)(F)F)ccc3n2C[C@@H]2CCCN3CCCCC23)cc1 (some centres undefined) , please.
Reply: 11.1 µM (inactive)

Ask: Recorded GI50 of CCOc1ccc(N2C(=O)C3c4[nH]c5ccccc5c4C4CCC(C(C)(C)C)CC4C3C2=O)cc1 (centres undefined) , please.
Reply: 10.3 µM (inactive)

Ask: Recorded GI50 of O=C1C[C@@H]2C(COC(=O)c3ccccc3)N(OCc3ccccc3)C[C@@H]2O1 (some centres undefined) , please.
Reply: > 100 µM (inactive)

Ask: Recorded GI50 of O=C(O)CCC1(C(=O)O)CCC(=O)c2ccccc21 (centres undefined) , please.
Reply: > 100 µM (inactive)

Ask: Recorded GI50 of `COc1cc2ccnc3c2c(c1O)N(C)C=C3` , please.
Reply: 3.88 µM (inactive)

Ask: Recorded GI50 of `COc1cc2c(cc1Cl)[n+]([O-])c(C#N)c(N1CCN(c3ccc([N+](=O)[O-])cc3)CC1)[n+]2[O-]` , please.
Reply: 8.73 µM (inactive)

Ask: Recorded GI50 of `CC(C)(C)n1c(=O)[nH]c(=O)n1C(C)(C)C` , please.
Reply: > 100 µM (inactive)

Ask: Recorded GI50 of `COc1cccc(Nc2nc(NNC(=O)Cc3ccccc3)nc(NNC(=O)c3ccncc3)n2)c1` , please.
Reply: > 10 µM (inactive)

Ask: Recorded GI50 of `O=c1[nH]c(=O)n(Cc2ccccc2CO)cc1Sc1ccccc1` , please.
Reply: 28.7 µM (inactive)

Ask: Recorded GI50 of `O=c1cc(N2CCCC2)[nH]c(=O)n1-c1ccc(F)cc1` , please.
Reply: > 100 µM (inactive)

Ask: Recorded GI50 of `O=c1[nH]c(=O)c2c([nH]1)[nH]c1ccccc12` , please.
Reply: > 100 µM (inactive)
